Recorded IC50 by entry
Target: telomerase (Homo sapiens, UniProt O14746)
Construct: endogenous in cells; host or cells: A375 human melanoma cells
Sequence (O14746 whole entry): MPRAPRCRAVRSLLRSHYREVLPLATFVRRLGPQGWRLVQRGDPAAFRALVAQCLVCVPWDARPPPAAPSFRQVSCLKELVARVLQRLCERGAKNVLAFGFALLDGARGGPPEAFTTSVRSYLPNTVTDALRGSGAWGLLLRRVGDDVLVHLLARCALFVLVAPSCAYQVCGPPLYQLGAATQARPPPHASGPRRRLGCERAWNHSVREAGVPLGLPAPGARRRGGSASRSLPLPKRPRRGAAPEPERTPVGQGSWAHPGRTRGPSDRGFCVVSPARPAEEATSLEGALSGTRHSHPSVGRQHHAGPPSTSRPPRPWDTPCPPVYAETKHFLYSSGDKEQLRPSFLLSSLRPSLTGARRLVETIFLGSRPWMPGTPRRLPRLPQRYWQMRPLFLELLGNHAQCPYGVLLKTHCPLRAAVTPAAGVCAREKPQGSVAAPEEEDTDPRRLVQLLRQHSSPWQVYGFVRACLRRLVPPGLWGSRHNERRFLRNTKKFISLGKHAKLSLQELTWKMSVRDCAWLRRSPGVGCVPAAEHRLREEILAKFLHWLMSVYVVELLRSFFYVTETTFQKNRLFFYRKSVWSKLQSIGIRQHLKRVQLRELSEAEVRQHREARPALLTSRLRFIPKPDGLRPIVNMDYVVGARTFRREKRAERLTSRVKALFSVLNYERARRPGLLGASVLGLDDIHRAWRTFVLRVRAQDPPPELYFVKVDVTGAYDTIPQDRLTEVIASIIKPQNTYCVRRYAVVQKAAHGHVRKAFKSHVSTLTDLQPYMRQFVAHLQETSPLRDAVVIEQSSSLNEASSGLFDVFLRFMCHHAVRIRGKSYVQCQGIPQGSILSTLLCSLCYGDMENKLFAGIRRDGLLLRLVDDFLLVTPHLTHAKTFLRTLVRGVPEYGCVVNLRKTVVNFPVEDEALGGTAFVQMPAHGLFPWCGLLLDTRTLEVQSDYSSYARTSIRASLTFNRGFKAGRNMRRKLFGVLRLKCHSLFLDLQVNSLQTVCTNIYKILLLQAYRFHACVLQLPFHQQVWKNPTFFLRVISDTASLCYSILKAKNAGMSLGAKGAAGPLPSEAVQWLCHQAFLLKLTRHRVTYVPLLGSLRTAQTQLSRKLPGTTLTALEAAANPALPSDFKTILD
Assay: Telomerase activity TRAP-PCR-ELISA assay (A375 cell extract)
Type: biochemical
Conditions: read-out: IC50 inhibitory activity against telomerase; TRAP-PCR-ELISA, A375 cells, 24 h treatment
READOUT_TYPE: IC50 (µM)

[[record]]
smiles_notation = "Cc1ccc(S(=O)(=O)n2c3ccccc3c3cc(/C=C/S(=O)(=O)F)ccc32)cc1"
tested_on = "telomerase (Homo sapiens, UniProt O14746)"
unit_symbol = "µM"
observed_value = 1.12

[[record]]
smiles_notation = "O=C1C=C(/C=C/S(=O)(=O)F)CCC1"
tested_on = "telomerase (Homo sapiens, UniProt O14746)"
unit_symbol = "µM"
observed_value = 39.9


###

Test system: human breast cancer cell MDA-MB-231
Assay: Cell proliferation (MTT) assay, MDA-MB-231
Type: cell-based
Conditions: antiproliferative, MTT, 48 h exposure; read-out: IC50 MDA-MB-231
Recorded IC50 by entry
READOUT_TYPE: IC50 (µM)

[[record]]
compound = "Cc1cc(/C=C/S(=O)(=O)F)ccc1Br [Compound 29]"
tested_on = "human breast cancer cell MDA-MB-231"
readout_type = "IC50"
unit_symbol = "µM"
observed_value = 16.9

[[record]]
compound = "O=S(=O)(F)/C=C/c1cccc2ccccc12 [Compound 30]"
tested_on = "human breast cancer cell MDA-MB-231"
readout_type = "IC50"
unit_symbol = "µM"
observed_value = 25.1

[[record]]
compound = "O=S(=O)(F)/C=C/c1cccc(I)c1 [Compound 72]"
tested_on = "human breast cancer cell MDA-MB-231"
readout_type = "IC50"
unit_symbol = "µM"
observed_value = 22.6

[[record]]
compound = "O=S(=O)(F)/C=C/c1cccc2c1sc1ccccc12 [Compound 43]"
tested_on = "human breast cancer cell MDA-MB-231"
readout_type = "IC50"
unit_symbol = "µM"
observed_value = 44

[[record]]
compound = "O=S(=O)(F)/C=C/c1ccc(F)cc1F [Compound 32]"
tested_on = "human breast cancer cell MDA-MB-231"
readout_type = "IC50"
unit_symbol = "µM"
observed_value = 16.1

[[record]]
compound = "Cc1ccccc1/C=C/S(=O)(=O)F [Compound 24]"
tested_on = "human breast cancer cell MDA-MB-231"
readout_type = "IC50"
unit_symbol = "µM"
observed_value = 41.8

[[record]]
compound = "COc1ccc(/C=C/S(=O)(=O)F)cc1 [Compound 4]"
tested_on = "human breast cancer cell MDA-MB-231"
readout_type = "IC50"
unit_symbol = "µM"
observed_value = 24.7

[[record]]
compound = "CCc1ccc(/C=C/S(=O)(=O)F)cc1 [Compound 2]"
tested_on = "human breast cancer cell MDA-MB-231"
readout_type = "IC50"
unit_symbol = "µM"
observed_value = 58.6

[[record]]
compound = "O=S(=O)(F)/C=C/c1cccs1 [Compound 40]"
tested_on = "human breast cancer cell MDA-MB-231"
readout_type = "IC50"
unit_symbol = "µM"
observed_value = 18.3

[[record]]
compound = "CS(=O)(=O)c1ccc(/C=C/S(=O)(=O)F)cc1 [Compound 66]"
tested_on = "human breast cancer cell MDA-MB-231"
readout_type = "IC50"
unit_symbol = "µM"
observed_value = 30.3

[[record]]
compound = "O=S(=O)(F)/C=C/c1ccsc1 [Compound 41]"
tested_on = "human breast cancer cell MDA-MB-231"
readout_type = "IC50"
unit_symbol = "µM"
observed_value = 10.6

[[record]]
compound = "CCOC(=O)c1ccc(/C=C/S(=O)(=O)F)cc1 [Compound 14]"
tested_on = "human breast cancer cell MDA-MB-231"
readout_type = "IC50"
unit_symbol = "µM"
observed_value = 3.6

[[record]]
compound = "Cc1ccc(/C=C/S(=O)(=O)F)cc1 [Compound 65]"
tested_on = "human breast cancer cell MDA-MB-231"
readout_type = "IC50"
unit_symbol = "µM"
observed_value = 30.5

[[record]]
compound = "O=S(=O)(F)/C=C/c1cc(C(F)(F)F)cc(C(F)(F)F)c1 [Compound 68]"
tested_on = "human breast cancer cell MDA-MB-231"
readout_type = "IC50"
unit_symbol = "µM"
observed_value = 21.2

[[record]]
compound = "O=S(=O)(F)/C=C/c1ccccc1F [Compound 73]"
tested_on = "human breast cancer cell MDA-MB-231"
readout_type = "IC50"
unit_symbol = "µM"
observed_value = 25.6

[[record]]
compound = "Cc1cc(C)cc(/C=C/S(=O)(=O)F)c1 [Compound 28]"
tested_on = "human breast cancer cell MDA-MB-231"
readout_type = "IC50"
unit_symbol = "µM"
observed_value = 20.6

[[record]]
compound = "CC(=O)c1ccc(/C=C/S(=O)(=O)F)cc1 [Compound 11]"
tested_on = "human breast cancer cell MDA-MB-231"
readout_type = "IC50"
unit_symbol = "µM"
observed_value = 5.66

[[record]]
compound = "O=S(=O)(F)/C=C/c1ccccc1O [Compound 35]"
tested_on = "human breast cancer cell MDA-MB-231"
readout_type = "IC50"
unit_symbol = "µM"
observed_value = 7.41

[[record]]
compound = "CC(C)c1cccc(/C=C/S(=O)(=O)F)c1 [Compound 74]"
tested_on = "human breast cancer cell MDA-MB-231"
readout_type = "IC50"
unit_symbol = "µM"
observed_value = 34.7

[[record]]
compound = "O=S(=O)(F)/C=C/C=C/c1ccccc1C(F)(F)F [Compound 54]"
tested_on = "human breast cancer cell MDA-MB-231"
readout_type = "IC50"
unit_symbol = "µM"
observed_value = 28.5

[[record]]
compound = "CSc1ccc(/C=C/S(=O)(=O)F)cc1 [Compound 64]"
tested_on = "human breast cancer cell MDA-MB-231"
readout_type = "IC50"
unit_symbol = "µM"
observed_value = 38.3

[[record]]
compound = "CCOC(=O)c1cccc(/C=C/S(=O)(=O)F)c1 [Compound 77]"
tested_on = "human breast cancer cell MDA-MB-231"
readout_type = "IC50"
unit_symbol = "µM"
observed_value = 19.4

[[record]]
compound = "O=S(=O)(F)/C=C/c1ccc(C(F)(F)F)cc1 [Compound 10]"
tested_on = "human breast cancer cell MDA-MB-231"
readout_type = "IC50"
unit_symbol = "µM"
observed_value = 29.8


Origin of the recorded values: paper PMC6116703
